Cited source for all entries: patent US20200123212A1

Molecular target: T1, Recombinant Human Epidermal Growth Factor (EGF) (human, UniProt P01133 971-1023)
T1 construct: Bought reagent; also called EGF protein
T1 sequence (P01133 971-1023 limits assumed): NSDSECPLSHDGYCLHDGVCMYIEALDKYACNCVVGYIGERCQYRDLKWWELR
Assay: SPR (Biacore 3000, CM5), peptide immobilised, EGF injected at 62.5-1000 nM, 25 C, 1:1 Langmuir global fit
Protocol: The following Test Method A was used for determining the binding affinity (KD) of SEQ ID NO: 1 for EGF and TNF-[…] Binding experiments were performed using Biacore 3000 optical biosensors equipped with research-grade CM5 sensor chips (GE Healthcare Bio-Sciences Corporation). […]
Where no end group is shown, it is not given here.
measured-quantity: pKd
Please report pKd as the negative decimal logarithm of the molar concentration, giving only the number.

Entry CKWFEWPYWEMNVPDVWN (also: amine-coupled to CM5 sensor chip via Lys of CK linker) [linker modified version of SEQ ID NO: 1 (CKWFEWPYWEMNVPDVWN)] — recorded pKd = 7.06
